Ref: paper PMC3474704

- assayedTarget: FLT3 (Homo sapiens)
- Sequence (P36888 27-993): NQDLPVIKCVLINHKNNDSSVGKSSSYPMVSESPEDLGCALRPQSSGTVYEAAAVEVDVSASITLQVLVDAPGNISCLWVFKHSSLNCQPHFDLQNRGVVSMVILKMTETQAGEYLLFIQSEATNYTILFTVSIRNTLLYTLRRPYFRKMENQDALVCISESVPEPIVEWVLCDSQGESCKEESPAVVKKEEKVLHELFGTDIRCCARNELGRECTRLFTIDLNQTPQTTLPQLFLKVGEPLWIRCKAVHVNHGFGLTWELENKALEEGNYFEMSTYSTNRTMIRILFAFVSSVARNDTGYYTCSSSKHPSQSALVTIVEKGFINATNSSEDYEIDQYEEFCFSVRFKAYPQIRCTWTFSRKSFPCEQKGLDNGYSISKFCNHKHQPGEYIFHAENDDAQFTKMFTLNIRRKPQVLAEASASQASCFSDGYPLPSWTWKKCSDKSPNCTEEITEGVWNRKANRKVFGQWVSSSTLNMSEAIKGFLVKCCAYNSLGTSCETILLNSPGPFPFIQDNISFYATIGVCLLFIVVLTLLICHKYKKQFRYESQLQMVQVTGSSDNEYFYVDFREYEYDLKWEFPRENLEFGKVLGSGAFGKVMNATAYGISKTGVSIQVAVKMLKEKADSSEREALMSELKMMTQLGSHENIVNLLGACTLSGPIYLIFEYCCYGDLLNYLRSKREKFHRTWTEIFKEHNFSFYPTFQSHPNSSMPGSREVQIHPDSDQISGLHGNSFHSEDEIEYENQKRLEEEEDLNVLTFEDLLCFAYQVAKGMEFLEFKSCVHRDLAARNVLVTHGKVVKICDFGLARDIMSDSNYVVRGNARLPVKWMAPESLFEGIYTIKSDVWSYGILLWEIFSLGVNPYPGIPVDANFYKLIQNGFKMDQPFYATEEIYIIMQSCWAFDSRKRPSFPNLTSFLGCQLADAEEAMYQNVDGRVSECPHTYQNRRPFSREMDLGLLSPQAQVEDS
readoutKind: IC50 (nM)
Answers are plain numbers, in nM.

Request: Find the measured IC50 of "COc1cc(Nc2cnc(C#N)c(O[C@H](C)CN(C)C)n2)ncc1-c1cnn(C)c1" and report it.
Response: 600

---

- testDetails: Plasma protein binding by ultra filtration
- Format: in vitro ADME
- conditionSet: mouse
readoutKind: fraction unbound at 1 h, 10 μM
Give bare numbers.

Request: Find the measured fraction unbound at 1 h, 10 μM of COc1cc(Nc2cnc(C#N)c(O[C@H](C)CN(C)C)n2)ncc1-c1cnn(C)c1 [CCT244747] and report it.
Response: 0.244

---

- assayedTarget: CDK1 (Homo sapiens, UniProt P06493)
- Sequence (P06493 whole entry, looked up): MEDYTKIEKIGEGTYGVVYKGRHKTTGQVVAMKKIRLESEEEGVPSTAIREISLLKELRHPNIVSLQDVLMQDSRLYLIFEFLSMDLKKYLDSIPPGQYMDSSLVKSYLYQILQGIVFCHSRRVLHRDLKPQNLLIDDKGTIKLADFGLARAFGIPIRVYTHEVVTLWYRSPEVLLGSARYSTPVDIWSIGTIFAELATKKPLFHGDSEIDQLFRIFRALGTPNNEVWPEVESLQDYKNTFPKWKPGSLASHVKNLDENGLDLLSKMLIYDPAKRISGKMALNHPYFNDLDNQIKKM
- testDetails: biochemical
readoutKind: IC50

Request: Find the measured IC50 of "COc1cc(Nc2cnc(C#N)c(O[C@H](C)CN(C)C)n2)ncc1-c1cnn(C)c1" and report it.
Response: > 10 µM

---

- assayedTarget: recombinant human CHK1 (Homo sapiens, UniProt O14757)
- Sequence (O14757 whole entry): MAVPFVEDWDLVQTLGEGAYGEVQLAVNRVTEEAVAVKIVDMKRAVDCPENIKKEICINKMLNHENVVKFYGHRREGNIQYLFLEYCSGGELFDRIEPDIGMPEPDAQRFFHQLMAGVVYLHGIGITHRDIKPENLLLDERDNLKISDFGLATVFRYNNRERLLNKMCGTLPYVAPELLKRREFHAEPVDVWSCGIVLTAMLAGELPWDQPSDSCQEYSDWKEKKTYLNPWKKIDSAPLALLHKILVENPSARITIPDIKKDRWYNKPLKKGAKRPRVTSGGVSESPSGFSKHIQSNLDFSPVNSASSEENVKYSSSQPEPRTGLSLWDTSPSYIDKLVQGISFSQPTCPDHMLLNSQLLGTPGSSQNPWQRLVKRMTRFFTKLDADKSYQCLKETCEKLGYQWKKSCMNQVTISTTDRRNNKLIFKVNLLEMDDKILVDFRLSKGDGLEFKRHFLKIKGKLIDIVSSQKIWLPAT
- testDetails: biochemical
readoutKind: IC50 (nM)
One number for each entry, in nM.

Request: Find the measured IC50 of "COc1cc(Nc2cnc(C#N)c(O[C@H](C)CN(C)C)n2)ncc1-c1cnn(C)c1" and report it.
Response: 8

---

- assayedTarget: CHK2 (Homo sapiens, UniProt O96017)
- Sequence (O96017 whole entry): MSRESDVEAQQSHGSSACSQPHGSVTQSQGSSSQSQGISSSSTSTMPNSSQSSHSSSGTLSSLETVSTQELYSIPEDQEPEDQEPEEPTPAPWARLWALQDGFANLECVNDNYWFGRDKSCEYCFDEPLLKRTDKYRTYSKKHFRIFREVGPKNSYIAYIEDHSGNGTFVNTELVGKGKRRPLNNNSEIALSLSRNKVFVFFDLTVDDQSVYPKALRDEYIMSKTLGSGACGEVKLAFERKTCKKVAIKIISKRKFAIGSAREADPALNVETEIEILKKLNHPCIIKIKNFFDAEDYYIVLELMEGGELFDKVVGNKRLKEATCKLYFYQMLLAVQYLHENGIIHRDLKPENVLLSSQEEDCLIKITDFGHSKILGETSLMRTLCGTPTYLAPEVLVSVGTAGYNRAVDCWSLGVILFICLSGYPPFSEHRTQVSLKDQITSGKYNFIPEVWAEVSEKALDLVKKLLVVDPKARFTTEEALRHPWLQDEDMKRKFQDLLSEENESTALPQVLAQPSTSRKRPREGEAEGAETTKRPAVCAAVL
pIC50: −log10 of the molar value.
readoutKind: pIC50

Request: Find the measured pIC50 of COc1cc(Nc2cnc(C#N)c(O[C@H](C)CN(C)C)n2)ncc1-c1cnn(C)c1 [CCT244747] and report it.
Response: < 5.00

---

- testDetails: Plasma pharmacokinetics in BALB/c mice
- Type: in vivo, mouse
- conditionSet: BALB/c, mouse, in vivo, 10 mg/kg
readoutKind: clearance (L/h/kg)
Answers are plain numbers, in L/h/kg.

Request: Find the measured clearance of COc1cc(Nc2cnc(C#N)c(O[C@H](C)CN(C)C)n2)ncc1-c1cnn(C)c1 [CCT244747] and report it.
Response: 6.2

---

- assayedTarget: UniProtKB O14757
- testDetails: Cell-based ELISA for G2 checkpoint abrogation
readoutKind: pIC50
One number for each entry, as −log10 of the molar value.

Request: Find the measured pIC50 of COc1cc(Nc2cnc(C#N)c(O[C@H](C)CN(C)C)n2)ncc1-c1cnn(C)c1 [CCT244747] and report it.
Response: 7.36

---

- assayedTarget: UniProt:O14757
- testDetails: Cell-based ELISA for G2 checkpoint abrogation
readoutKind: pIC50
Numbers only, as −log10 of the molar value.

Request: Find the measured pIC50 of "COc1cc(Nc2cnc(C#N)c(O[C@H](C)CN(C)C)n2)ncc1-c1cnn(C)c1" and report it.
Response: 7.03

---

- testDetails: Plasma pharmacokinetics in BALB/c mice
- Format: in vivo, mouse
- conditionSet: BALB/c, mouse, in vivo, iv, 10 mg/kg
readoutKind: half-life (min)
One number for each entry, in min.

Request: Find the measured half-life of "COc1cc(Nc2cnc(C#N)c(O[C@H](C)CN(C)C)n2)ncc1-c1cnn(C)c1" and report it.
Response: 40.2

---

- testDetails: Plasma pharmacokinetics in BALB/c mice
- Type: in vivo, mouse
- conditionSet: BALB/c, mouse, in vivo, po, 10 mg/kg
readoutKind: half-life
Answer format: number, then unit.

Request: Find the measured half-life of "COc1cc(Nc2cnc(C#N)c(O[C@H](C)CN(C)C)n2)ncc1-c1cnn(C)c1" and report it.
Response: 55.2 min
